All values here come from patent US6930203B2.

Assay: Solvent scope of N,N′-dialkylaldaramides (1%) or N,N′-dialkylpentaramides (1%): gelation/solubility behaviour in solvents
Assay type: physicochemical
Parameters: key: g = gelation; s = soluble; p = precipitates; c = crystallizes; ns = not soluble; v = viscous; g* = unstable gel, precipitates; cg = crystalline gel
Details: 1% gelling agent; methyl benzoic acid
QUANTITY: Gelation/solubility behaviour in methyl benzoic acid

1) CCCCCCCCCCCCNC(=O)[C@@H](O)[C@@H](O)[C@H](OC)[C@@H](O)C(=O)NCCCCCCCCCCCC [Example 21, 3-O-methyl-didodecyl D-glucaramide]; p
2) O=C(NC1CCCCCCCCCCC1)[C@@H](O)[C@H](O)[C@H](O)[C@@H](O)C(=O)NC1CCCCCCCCCCC1 [Example 17, dicyclododecyl galactaramide]; ns
3) O=C(NC1CCCCC1)[C@@H](O)[C@@H](O)[C@H](O)[C@@H](O)C(=O)NC1CCCCCCCCCCC1 [Example 23]; p
4) O=C(NC1CCCCCCCCCCC1)[C@@H](O)[C@@H](O)[C@H](O)[C@@H](O)C(=O)NC1CCCCCCCCCCC1 [Example 15, dicyclododecyl D-glucaramide]; g
